- System: NCI-H23 lung
- assay-text: NCI-60 one-dose screen, 48 h (100 = growth as untreated, 0 = no growth, -100 = all killed)
- assay-conditions: 10 µM unless noted
About 83,000 compounds went through this panel and 20% of them were active in at least one assay; those are over-represented in the sample as a whole.
measured-endpoint: growth (%)
Note: unit % is implicit; provide only the numeric part.

CCSc1ncnc2c1ncn2C1OC(CO)C(O)C1O (stereo not given) : 24.6
COc1cc(-c2cc3ncccc3c3nc(N)c4cccnc4c23)cc(OC)c1OC : 24.5
C=C1C(=O)O[C@H]2[C@H]1CC/C(Cn1cc(-c3ccc(F)cc3)nn1)=C\CC[C@@]1(C)O[C@@H]21 : 5.71
N#CC1c2ccccc2-c2ccccc2N1C(=O)c1ccccc1 (stereo not given) : 22.6
CCOC(=O)C/C(=C\c1ccccc1)C(C)=O : 104

Ask | Can you share its growth? I mean this compound: Brc1cnc2[nH]cc(-c3nnc(-c4ccccc4)o3)c2c1
Reply | 78.5

Ask | Quick check: growth of O=C(NC(Cc1cn(Cc2ccccc2)cn1)C(=O)O)OCC1c2ccccc2-c2ccccc21 (stereo not given) ?
Reply | 98.7
